# tested.target: SARS-CoV-2 spike glycoprotein RBD domain (SARS-CoV-2, UniProt P0DTC2 SEQ:1-223)
# method.notes: SPR; SB1T + 0.1 mM dextran, 25 C
Field: label. Allowed values: Y (Kd < 5 nM) or N (Kd >= 5 nM).

Here's an entry: Binding nucleic acid molecule 7 (ssDNA, NG7 (modified thymine, formula 1) at all T 3' of the first 23 nt) DNA: GGTTTAGCCCTCGACTCCAAATGTGCTGATACTCGGTATCCCTAATCTCACCCGATACCGTTGATGTGCTGCCAATACAAAAAAAAAAAAAAAAAAAA . Is its Kd below 5 nM?
N

# repeat for Binding nucleic acid molecule 5 (ssDNA, NG7 (modified thymine, formula 1) at underlined T, i.e. T residues 3' of the first 23 nt (underlining of some T differs between printings)) DNA: GGTTTAGCCCTCGACTCCAAATGTGCACTCTCCCGGTATCCCTAATCTCACCCGATACCGTTGATGTGCTGCCAATACAAAAAAAAAAAAAAAAAAAA
Y

Would you mind doing Binding nucleic acid molecule 1 (ssDNA, NG7 (modified thymine, formula 1) at underlined T, i.e. T residues 3' of the first 23 nt (underlining of some T differs between printings); 3' poly(dA)20 tail unmodified) DNA: GGTATGTCTCCGCCACTGAAATCCGTGCCTAATCTCACCCCACGGAATTCATGGCAAAGCCGAGGTGTCTTGTATTCAAAAAAAAAAAAAAAAAAAA as well?
Y

Also, Binding nucleic acid molecule 9 (ssDNA, NG7 (modified thymine, formula 1) at all T 3' of the first 15 nt) DNA: TCCGCCACTGAAATCTAATCTCACATTGTAAGCAAAGGAGAATAAAAAAAAAAAAAAAAAAAAAA please.
N

Entry Binding nucleic acid molecule 6 (ssDNA, NG7 (modified thymine, formula 1) at all T 3' of the first 23 nt) DNA: GGTTTAGCCCTCGACTCCAAATGACATGAGCCAGGTGCATCTTGAACGTCATAGATACCGTTGATGTGCTGCCAATACAAAAAAAAAAAAAAAAAAAA please
N

Now the binder Binding nucleic acid molecule 2 (ssDNA, NG7 (modified thymine, formula 1) at all T 3' of the first 23 nt) DNA: GGTATGTCTCCGCCACTGAAATCTAATCTCACATTGTAAGCAAAGGAGAATAAGCAAAGCCGAGGTGTCTTGTATTCAAAAAAAAAAAAAAAAAAAA
Y

Next record, please: Binding nucleic acid molecule 11 (ssDNA, NG7 (modified thymine, formula 1) at all T 3' of the first 15 nt) DNA: TGTGCACTCTCCCGGTATCCCTAATCTCACCCGATACCAAAAAAAAAAAAAAAAAAAA
N

One more binder: Binding nucleic acid molecule 12 (ssDNA, NG7 (modified thymine, formula 1) at all T 3' of the first 14 nt) DNA: TGACATGAGCCAGGTGCATCTTGAACGTCATAGATACCGTTGATGTGCTGAAAAAAAAAAAAAAAAAAAA
N

Same for Binding nucleic acid molecule 13 (ssDNA, NG7 (modified thymine, formula 1) at all T 3' of the first 12 nt) DNA: GCTGATACTCGGTATCCCTAATCTCACCCGATACCGAAAAAAAAAAAAAAAAAAAA
N

And Binding nucleic acid molecule 8 (ssDNA, NG7 (modified thymine, formula 1) at all T 3' of the first 11 nt) DNA: CCACTGAAATCCGTGCCTAATCTCACCCCACGGAATTCATGGAAAAAAAAAAAAAAAAAAAA ?
N
